Assay: Pharmacokinetic experiment in mouse
Conditions: plasma, iv, 10 mg/kg
TEST READOUT: Cmax (ng/mL)
Respond with the bare value in ng/mL.

The cases that follow already have their Cmax on record.
FC1(CN[C@@H]2C[C@H]2c2ccccc2)CCNCC1 (relative stereo)    2020
N[C@H]1CC[C@](F)(CNC2CC2c2ccccc2)CC1 (stereo partly drawn)    932

Turning now to a further compound:
Req: Fill blank: measured Cmax of the compound O=C(OCc1ccccc1)N1CCC(F)(CNC2CC2c2ccccc2)CC1 (stereo not drawn) is ____.
Resp: 16700

###

Assay: Pharmacokinetic experiment in mouse
Conditions: plasma, iv, 10 mg/kg
TEST READOUT: AUC(0-inf) (µg·h/mL)
Dear colleague, please return just the value in µg·h/mL, with no unit written.

Below, 2 compounds whose answers are already recorded.
O=C(OCC1CCN(Cc2ccccc2)CC1)N1CCC(F)(CN[C@@H]2C[C@H]2c2ccccc2)CC1 (relative stereo) [Example A90]    2.76
O=C(OCc1ccccc1)N1CCC(F)(CNC2CC2c2ccccc2)CC1 (stereo not drawn) [Example A1]    14.7

Req: Field request: AUC(0-inf) | item: O=C(OCC1CCN(Cc2ccccc2)CC1)N1CCC(F)(CN[C@@H]2C[C@H]2c2ccccc2)CC1 [(1R,2S)-A90]
Resp: 4.84
